Test system: HEK-293T
Assay: Multiplex assay against HEK293T
Assay type: toxicity, cell-based
Conditions: human, 48 h, 1 µM, compound concentration 1 uM, replicate 2
Class yes: Population Hoechst High Intensity Objects (%) at least 4%. Class no: Population Hoechst High Intensity Objects (%) below 4%.

{"columns": ["compound", "group-label"],
 "data": [
  ["Cc1c(P(=S)(c2ccccc2)c2ccccc2)n2ccccc2[n+]1C/C=C/c1ccccc1.[Br-]", "yes"],
  ["N#CCNC(=O)c1ccc(-c2ccnc(Nc3ccc(N4CCOCC4)cc3)n2)cc1 [MOMELOTINIB]", "no"],
  ["CCCCN(CC)c1nc(C)nc2c1c(C)cn2-c1c(C)cc(C)cc1C.Cl", "no"],
  ["C=CC(=O)Nc1cc(-n2c(=O)ccc3cnc4ccc(-c5ccc(NS(C)(=O)=O)cc5)cc4c32)ccc1C", "yes"],
  ["CN(c1cc(C(F)(F)F)nc(OCCC(=O)O)n1)c1cccc2c1CCC2", "no"],
  ["Cc1ccc(S(=O)(=O)NC2c3ccccc3Oc3ccccc32)cc1", "no"],
  ["CC(C)c1cc(Nc2nc(N3CCC[C@H](N)C3)ncc2C(N)=O)cc(C(C)C)n1", "yes"],
  ["CC(/C=C1\\SC(=S)N(CCCC(=O)Nc2ccc(C(=O)O)c(O)c2)C1=O)=C\\c1ccccc1", "no"],
  ["Cl.NC[C@@H]1O[C@H](C23CC4CC(CC(C4)C2)C3)Cc2c1ccc(O)c2O", "no"],
  ["C[C@@H](Oc1cc(-n2cnc3ccc(CN4CCN(C)CC4)cc32)sc1C(N)=O)c1ccccc1C(F)(F)F [GSK-461364]", "no"],
  ["CC(Cc1ccc(O)c(O)c1)C(C)Cc1ccc(O)c(O)c1 (configuration not stated) [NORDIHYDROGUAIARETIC ACID]", "yes"],
  ["CCCc1cc(C)[nH]c(=O)c1CNC(=O)c1cc(-c2ccc(N3CCN(C(C)C)CC3)nc2)cc2c1cnn2C(C)C", "no"],
  ["Oc1cccc(-c2nc(N3CCOCC3)c3oc4ncccc4c3n2)c1 [PI-103]", "yes"]
]}

---

Test system: U2OS
Test: Multiplex assay against U2OS
Format: toxicity, cell-based
Conditions: human, 12 h, 10 µM, compound concentration 10 uM, replicate 2
Population Pyknosed Nuclei (%) of 6% or higher: 1. Under 6%: 0.

{"columns": ["molecule", "group-label"],
 "data": [
  ["CC[C@@]1(O)C(=O)OCc2c1cc1n(c2=O)Cc2cc3ccccc3nc2-1 [CAMPTOTHECIN]", 1],
  ["Cl.NC[C@@H]1O[C@H](C23CC4CC(CC(C4)C2)C3)Cc2c1ccc(O)c2O", 1],
  ["CCOC(=O)CCNc1cc(N2CCc3ccccc3CC2)nc(-c2ccccn2)n1", 0],
  ["Cl.Cn1c2c(c3ccc(Cl)c(Cl)c31)C(C#N)C1(CCNCC1)NC2=O (stereo not drawn)", 1],
  ["C[C@@H](Oc1cc(-n2cnc3ccc(CN4CCN(C)CC4)cc32)sc1C(N)=O)c1ccccc1C(F)(F)F [GSK-461364]", 1],
  ["Cc1ccc(NC(=O)Nc2cc(C(F)(F)F)ccc2F)cc1Nc1ccc2c(c1)NC(=O)/C2=C\\c1ccc[nH]1", 0],
  ["N#CCNC(=O)c1ccc(-c2ccnc(Nc3ccc(N4CCOCC4)cc3)n2)cc1 [MOMELOTINIB]", 1]
]}

---

System: HEK-293T
Test: Multiplex assay against HEK293T
Assay type: toxicity, cell-based
Details: human, 12 h, 1 µM, compound concentration 1 uM, replicate 2
property-measured: Total Cell Count

{"columns": ["compound", "recorded-number"],
 "data": [
  ["CC(C)C[C@H](NC(=O)[C@H](Cc1ccccc1)NC(=O)CNC(=O)CNC(=O)[C@@H](N)Cc1ccc(O)cc1)C(=O)O", 229],
  ["Cc1c(Nc2ccc(S(=O)(=O)N3CCN(C)CC3)cc2F)nc2ccc(-c3cnn(C4CC4)c3)cn2c1=O", 1860],
  ["N#Cc1cccc(C(=O)Nc2cc(-c3ccccc3)nn2-c2ccccc2)c1", 182],
  ["C[C@@H](Oc1cc(-n2cnc3ccc(CN4CCN(C)CC4)cc32)sc1C(N)=O)c1ccccc1C(F)(F)F", 142],
  ["N#CCNC(=O)c1ccc(-c2ccnc(Nc3ccc(N4CCOCC4)cc3)n2)cc1", 198],
  ["Cc1c(P(=S)(c2ccccc2)c2ccccc2)n2ccccc2[n+]1C/C=C/c1ccccc1.[Br-]", 138],
  ["Cc1ccc(S(=O)(=O)NC2c3ccccc3Oc3ccccc32)cc1", 179],
  ["CC(Cc1ccc(O)c(O)c1)C(C)Cc1ccc(O)c(O)c1 (stereo not drawn) [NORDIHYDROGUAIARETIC ACID]", 194]
]}

---

Test system: U2OS
Assay: Incucyte cell viability with U2OS; further: filed as whole numbers so only -1 and 0 and 1 occur
Type: toxicity, cell-based
Settings: human, 24 h, 10 µM, compound concentration 10 uM, replicate number 1, timepoint 24 hours
property-measured: Growth Rate

{"columns": ["molecule", "target-under-test", "recorded-number"],
 "data": [
  ["C[C@@H](Oc1cc(-n2cnc3ccc(CN4CCN(C)CC4)cc32)sc1C(N)=O)c1ccccc1C(F)(F)F", "U2OS", 0],
  ["OCCn1cc(-c2ccc3c(c2)CCC3=NO)c(-c2ccncc2)n1", "U2OS", 1],
  ["CC[C@@H]1C(=O)N(C)c2cnc(Nc3ccc(C(=O)N[C@H]4CC[C@H](N5CCN(CC6CC6)CC5)CC4)cc3OC)nc2N1C(C)C", "U2OS", 0],
  ["C=CC(=O)Nc1cc(-n2c(=O)ccc3cnc4ccc(-c5ccc(NS(C)(=O)=O)cc5)cc4c32)ccc1C", "U2OS", 0],
  ["CC(C)[C@H](CO)Nc1nc(Nc2cccc(Cl)c2)c2ncn(C(C)C)c2n1", "U2OS", 0],
  ["CCC(=O)NC1Cc2ccccc2C(c2ccccc2)C1 (centres undefined)", "U2OS", 0],
  ["Cc1cn2cc(CC(=O)N3CCC4(CC3)CN(Cc3ccc(-n5nccn5)cc3Cl)C4)nc2s1", "U2OS", 1],
  ["CN(CCOc1ccc(CC2SC(=O)NC2=O)cc1)c1ccccn1 (centres undefined)", "U2OS", 1],
  ["Cc1c(C2=CCN(C(=O)N(C)C(C)C)CC2)nnn1-c1cccnc1F", "U2OS", 1]
]}

---

# Growth Rate annotations
Test system: Fibroblast
Experiment: Incucyte cell viability with human fibroblast; further: filed as whole numbers so only -1 and 0 and 1 occur
Type: toxicity, cell-based
Details: 18 h, 10 µM, compound concentration 10 uM, replicate number 1, timepoint 18 hours
property-measured: Growth Rate

{"columns": ["compound", "property-measured", "recorded-number"],
 "data": [
  ["CC(C)NCC(O)COc1cccc2ccccc12.Cl (centres undefined) [PROPRANOLOL HYDROCHLORIDE]", "Growth Rate", 1],
  ["Cc1ccc2[nH]c(CNCCCc3ccncc3)cc(=O)c2c1 [UCSF924NC]", "Growth Rate", 0],
  ["COc1cc(C#N)ccc1S(=O)(=O)Nc1ccc2c(c1)cc(C)c(=O)n2C", "Growth Rate", 0],
  ["Cc1cc2c(cc1C1(c3ccc(C(=O)O)cn3)CC1)C(C)(C)CCC2(C)C", "Growth Rate", 1]
]}

---

// Population Healthy Nuclei (%) lookup, one value per entry
Test system: U2OS
Test: Multiplex assay against U2OS
Format: toxicity, cell-based
Conditions: human, 48 h, 1 µM, compound concentration 1 uM, replicate 1

{"columns": ["molecule", "target-under-test", "Population Healthy Nuclei (%)"],
 "data": [
  ["Oc1cccc(-c2nc(N3CCOCC3)c3oc4ncccc4c3n2)c1 [PI-103]", "U2OS", 64],
  ["CC(Cc1ccc(O)c(O)c1)C(C)Cc1ccc(O)c(O)c1 (stereo not drawn) [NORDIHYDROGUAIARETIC ACID]", "U2OS", 81],
  ["N#CCNC(=O)c1ccc(-c2ccnc(Nc3ccc(N4CCOCC4)cc3)n2)cc1 [MOMELOTINIB]", "U2OS", 82]
]}

---

Tested on: U2OS
Experiment: Multiplex assay against U2OS
Assay type: toxicity, cell-based
Settings: human, 48 h, 1 µM, compound concentration 1 uM, replicate 2
# key: entry, value: Population Healthy Nuclei (%)

{"columns": ["molecule", "Population Healthy Nuclei (%)"],
 "data": [
  ["CC(Cc1ccc(O)c(O)c1)C(C)Cc1ccc(O)c(O)c1 (stereo unspecified) [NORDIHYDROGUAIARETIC ACID]", "86%"],
  ["CCCCCNC(=N)N/N=C/c1c[nH]c2ccc(OC)cc12.O=C(O)/C=C\\C(=O)O [TEGASEROD MALEATE]", "75%"],
  ["C=CC(=O)Nc1cc(-n2c(=O)ccc3cnc4ccc(-c5ccc(NS(C)(=O)=O)cc5)cc4c32)ccc1C", "81%"],
  ["CN1C(=O)[C@@H](NC(=O)c2cc3ccccc3[nH]2)N=C(c2ccccc2)c2ccccc21 [DEVAZEPIDE]", "78%"],
  ["Cl.NC[C@@H]1O[C@H](C23CC4CC(CC(C4)C2)C3)Cc2c1ccc(O)c2O", "82%"],
  ["Cc1c(P(=S)(c2ccccc2)c2ccccc2)n2ccccc2[n+]1C/C=C/c1ccccc1.[Br-]", "49%"],
  ["N#CCNC(=O)c1ccc(-c2ccnc(Nc3ccc(N4CCOCC4)cc3)n2)cc1", "89%"],
  ["N#Cc1cccc(C(=O)Nc2cc(-c3ccccc3)nn2-c2ccccc2)c1", "86%"],
  ["CCCCN(CC)c1nc(C)nc2c1c(C)cn2-c1c(C)cc(C)cc1C.Cl", "82%"],
  ["C[C@@H](Oc1cc(-n2cnc3ccc(CN4CCN(C)CC4)cc32)sc1C(N)=O)c1ccccc1C(F)(F)F", "68%"],
  ["CCCc1cc(C)[nH]c(=O)c1CNC(=O)c1cc(-c2ccc(N3CCN(C(C)C)CC3)nc2)cc2c1cnn2C(C)C", "59%"]
]}
